Where these numbers come from: PubChem BioAssay (NCI)

system: MDA-MB-435; assay: NCI tumour cell line growth inhibition, 48 h
TGI values by entry

Molecule	TGI
COc1ccc2nc3c([N+](=O)[O-])ccc4c3c(c2c1)N=CN4CCCN(C)C	20.1 µM
CC(=O)N1C(=O)CC2(N=C(C)CC2=O)c2ccccc21 (configuration not stated)	> 10 µM
Cn1ccnc1CC(C)(O)c1ccccc1 (configuration not stated)	> 100 µM
N#CC(C#N)N=Cc1ccncc1	> 100 µM
CCOC(=O)c1cc(C#N)c(=O)n(/N=C(\C)c2ccncc2)c1O	> 100 µM
CCN(CC)CC(O)CNc1ccc(NCC2CO2)c2c1C(=O)c1ccccc1C2=O (configuration not stated)	0.394 µM

Param item: CN1CCN(CCCN)CC1 ; param system: MDA-MB-435; output TGI: > 100 µM
